assay: Absorption characteristics: transmission spectrum of near-infrared absorbing layer of NIR filter (UV-visible spectrophotometer); assay type: physicochemical; details: transparent resin polycarbonate SP3810, nd(B) 1.63, film thickness 1.0 μm
OBSERVATION TYPE: λa − λc (nm)

CC(CCC(C(=O)Nc1cc2c(cc1C1=C([O-])C(=c3cc4c(cc3NC(=O)C(CCC(C)CC(C)(C)C)C(C)CC(C)(C)C)=[N+](C)C(C)C4(C)C)C1=O)C(C)(C)C(C)N2C)C(C)CC(C)(C)C)CC(C)(C)C (centres unmarked) ... 69
Cc1ccc(C)c(OCCCC(C)(C)C(=O)Nc2cc3c(cc2C2=C([O-])C(=c4cc5c(cc4NC(=O)C(C)(C)CCCOc4cc(C)ccc4C)=[N+](C)C(C)C5(C)C)C2=O)C(C)(C)C(C)N3C)c1 (centres unmarked) ... 69
CCCCCCCC(=O)Nc1cc2c(cc1C1=C([O-])C(=c3cc4c(cc3NC(=O)CCCCCCC)=[N+](C)C(C)C4(C)C)C1=O)C(C)(C)C(C)N2C (centres unmarked) [Example A11-24, reference compound] ... 75
CCCCC(CC)C(=O)Nc1cc2c(cc1C1=C([O-])C(=c3cc4c(cc3NC(=O)C(CC)CCCC)=[N+](C)C(C)C4(C)C)C1=O)C(C)(C)C(C)N2C (centres unmarked) ... 70
CCCC(CCC)C(=O)Nc1cc2c(cc1C1=C([O-])C(=c3cc4c(cc3NC(=O)C(CCC)CCC)=[N+](C)C(C)C4(C)C)C1=O)C(C)(C)C(C)N2C (centres unmarked) ... 69

* * *

assay: Absorption characteristics: transmission spectrum of near-infrared absorbing layer of NIR filter (UV-visible spectrophotometer); assay type: physicochemical; conditions: transparent resin acrylic resin BR50, nd(B) 1.56, film thickness 2.3 μm
OBSERVATION TYPE: λc (nm)

CCCCCCCCCCCC(=O)Nc1cc2c(cc1C1=C([O-])C(=c3cc4c(cc3NC(=O)CCCCCCCCCCC)=[N+](C)C(C)C4(C)C)C1=O)C(C)(C)C(C)N2C (stereo not shown) [Example A11-25, reference compound] ... 605
CCCCC(CC)C(=O)Nc1cc2c(cc1C1=C([O-])C(=c3cc4c(cc3NC(=O)C(CC)CCCC)=[N+](C(C)C)C(C)C4(C)C)C1=O)C(C)(C)C(C)N2C(C)C (stereo not shown) [Example A11-7] ... 630
CC(=O)Nc1cc2c(cc1C1=C([O-])C(=c3cc4c(cc3NC(C)=O)=[N+](C)C(C)C4(C)C)C1=O)C(C)(C)C(C)N2C (stereo not shown) [Example A11-20, reference compound] ... 596
CC(CCC(C(=O)Nc1cc2c(cc1C1=C([O-])C(=c3cc4c(cc3NC(=O)C(CCC(C)CC(C)(C)C)C(C)CC(C)(C)C)=[N+](C)C(C)C4(C)C)C1=O)C(C)(C)C(C)N2C)C(C)CC(C)(C)C)CC(C)(C)C (stereo not shown) [Example A11-4] ... 617

* * *

Test: Absorption characteristics: transmission spectrum of near-infrared absorbing layer of NIR filter (UV-visible spectrophotometer)
Format: physicochemical
Settings: transparent resin acrylic resin BR50, nd(B) 1.56, film thickness 2.3 μm
Experimental: Further, the transmittance of the near-infrared absorbing layer can be measured by using an ultraviolet visible light spectrophotometer. For example, when the near-infrared absorbing layer is provided on a glass substrate, the transmittance is calculated by subtracting the transmittance of only the glass substrate. […]
OBSERVATION TYPE: λmax (nm)

CC(=O)Nc1cc2c(cc1C1=C([O-])C(=c3cc4c(cc3NC(C)=O)=[N+](C)C(C)C4(C)C)C1=O)C(C)(C)C(C)N2C (stereo not shown) [Example A11-20, reference compound] ... 704
CCCC(CCC)C(=O)Nc1cc2c(cc1C1=C([O-])C(=c3cc4c(cc3NC(=O)C(CCC)CCC)=[N+](C)C(C)C4(C)C)C1=O)C(C)(C)C(C)N2C (stereo not shown) ... 706
CCCC(C)(C)C(=O)Nc1cc2c(cc1C1=C([O-])C(=c3cc4c(cc3NC(=O)C(C)(C)CCC)=[N+](C)C(C)C4(C)C)C1=O)C(C)(C)C(C)N2C (stereo not shown) ... 700
CCCCCCCCCCCC(=O)Nc1cc2c(cc1C1=C([O-])C(=c3cc4c(cc3NC(=O)CCCCCCCCCCC)=[N+](C)C(C)C4(C)C)C1=O)C(C)(C)C(C)N2C (stereo not shown) [Example A11-25, reference compound] ... 705

* * *

test: Solubility of dye to organic solvent; assay type: physicochemical; conditions: methyl isobutyl ketone, 50° C.; mass % of the dye to the mass of the entire solution
OBSERVATION TYPE: Solubility to organic solvent: MIBK

CCCCCCCCCCCC(=O)Nc1cc2c(cc1C1=C([O-])C(=c3cc4c(cc3NC(=O)CCCCCCCCCCC)=[N+](C)C(C)C4(C)C)C1=O)C(C)(C)C(C)N2C (stereo not shown) [Example A11-25, reference compound] ... 1.00% mass %
CCCC(C)C(=O)Nc1cc2c(cc1C1=C([O-])C(=c3cc4c(cc3NC(=O)C(C)CCC)=[N+](C)C(C)C4(C)C)C1=O)C(C)(C)C(C)N2C (stereo not shown) [Example A11-10] ... 1.00% mass %
CCCCC(CC)C(=O)Nc1cc2c(cc1C1=C([O-])C(=c3cc4c(cc3NC(=O)C(CC)CCCC)=[N+](C)C(C)C4(C)C)C1=O)C(C)(C)C(C)N2C (stereo not shown) [Example A11-2] ... 10%< mass %
CCCC(CCC)C(=O)Nc1cc2c(cc1C1=C([O-])C(=c3cc4c(cc3NC(=O)C(CCC)CCC)=[N+](C)C(C)C4(C)C)C1=O)C(C)(C)C(C)N2C (stereo not shown) [Example A11-1] ... 2.50% mass %

stdin: Returns the measured Solubility to organic solvent: MIBK for the input molecule. Input: CCN1c2cc(NC(=O)C(C)(C)CCCOc3cc(C)ccc3C)c(C3=C([O-])C(=c4cc5c(cc4NC(=O)C(C)(C)CCCOc4cc(C)ccc4C)=[N+](CC)C(C)C5(C)C)C3=O)cc2C(C)(C)C1C (stereo not shown) [Example A11-8]
stdout: 10%< mass %

stdin: Value lookup for Solubility to organic solvent: MIBK; key = CCCCC(CC)C(=O)Nc1cc2c(cc1C1=C([O-])C(=c3cc4c(cc3NC(=O)C(CC)CCCC)=[N+](C(C)C)C(C)C4(C)C)C1=O)C(C)(C)C(C)N2C(C)C (stereo not shown) [Example A11-7]
stdout: 3.00% mass %

stdin: Reported Solubility to organic solvent: MIBK for CC(=O)Nc1cc2c(cc1C1=C([O-])C(=c3cc4c(cc3NC(C)=O)=[N+](C)C(C)C4(C)C)C1=O)C(C)(C)C(C)N2C (stereo not shown) [Example A11-20, reference compound] : what is it?
stdout: <1.0% mass %

stdin: // returns reported Solubility to organic solvent: MIBK for input CCCCCCCCCC(CCCCCCC)C(=O)Nc1cc2c(cc1C1=C([O-])C(=c3cc4c(cc3NC(=O)C(CCCCCCC)CCCCCCCCC)=[N+](C)C(C)C4(C)C)C1=O)C(C)(C)C(C)N2C (stereo not shown) [Example A11-3]
stdout: 10%< mass %

stdin: # query: Solubility to organic solvent: MIBK of entry CCCCCC(=O)Nc1cc2c(cc1C1=C([O-])C(=c3cc4c(cc3NC(=O)CCCCC)=[N+](C)C(C)C4(C)C)C1=O)C(C)(C)C(C)N2C (stereo not shown) [Example A11-22, reference compound]
stdout: <1.0% mass %

stdin: # get_value(readout='Solubility to organic solvent: MIBK', item= CCCCCCC(=O)Nc1cc2c(cc1C1=C([O-])C(=c3cc4c(cc3NC(=O)CCCCCC)=[N+](C)C(C)C4(C)C)C1=O)C(C)(C)C(C)N2C (stereo not shown) [Example A11-23, reference compound] )
stdout: <1.0% mass %

* * *

assay: Absorption characteristics: transmission spectrum of near-infrared absorbing layer of NIR filter (UV-visible spectrophotometer); type: physicochemical; details: transparent resin polycarbonate SP3810, nd(B) 1.63, film thickness 2.8 μm
OBSERVATION TYPE: 430 nm to 600 nm Average transmittance (%)

CCCC(C)(C)C(=O)Nc1cc2c(cc1C1=C([O-])C(=c3cc4c(cc3NC(=O)C(C)(C)CCC)=[N+](C)C(C)C4(C)C)C1=O)C(C)(C)C(C)N2C (stereo not drawn) ... 95.6
CC(=O)Nc1cc2c(cc1C1=C([O-])C(=c3cc4c(cc3NC(C)=O)=[N+](C)C(C)C4(C)C)C1=O)C(C)(C)C(C)N2C (stereo not drawn) [Example A11-20, reference compound] ... 95.0
CC(CCC(C(=O)Nc1cc2c(cc1C1=C([O-])C(=c3cc4c(cc3NC(=O)C(CCC(C)CC(C)(C)C)C(C)CC(C)(C)C)=[N+](C)C(C)C4(C)C)C1=O)C(C)(C)C(C)N2C)C(C)CC(C)(C)C)CC(C)(C)C (stereo not drawn) ... 95.9
CCCCC(CC)C(=O)Nc1cc2c(cc1C1=C([O-])C(=c3cc4c(cc3NC(=O)C(CC)CCCC)=[N+](C)C(C)C4(C)C)C1=O)C(C)(C)C(C)N2C (stereo not drawn) ... 95.5
CCCC(CCC)C(=O)Nc1cc2c(cc1C1=C([O-])C(=c3cc4c(cc3NC(=O)C(CCC)CCC)=[N+](C)C(C)C4(C)C)C1=O)C(C)(C)C(C)N2C (stereo not drawn) ... 96
CCCCCCCC(=O)Nc1cc2c(cc1C1=C([O-])C(=c3cc4c(cc3NC(=O)CCCCCCC)=[N+](C)C(C)C4(C)C)C1=O)C(C)(C)C(C)N2C (stereo not drawn) [Example A11-24, reference compound] ... 95.4
Cc1ccc(C)c(OCCCC(C)(C)C(=O)Nc2cc3c(cc2C2=C([O-])C(=c4cc5c(cc4NC(=O)C(C)(C)CCCOc4cc(C)ccc4C)=[N+](C)C(C)C5(C)C)C2=O)C(C)(C)C(C)N3C)c1 (stereo not drawn) ... 95.1
CCCCC(CC)C(=O)Nc1cc2c(cc1C1=C([O-])C(=c3cc4c(cc3NC(=O)C(CC)CCCC)=[N+](C(C)C)C(C)C4(C)C)C1=O)C(C)(C)C(C)N2C(C)C (stereo not drawn) ... 96.5
CCCCCCCCCCCC(=O)Nc1cc2c(cc1C1=C([O-])C(=c3cc4c(cc3NC(=O)CCCCCCCCCCC)=[N+](C)C(C)C4(C)C)C1=O)C(C)(C)C(C)N2C (stereo not drawn) [Example A11-25, reference compound] ... 95.3
